# experimental_system: vanilloid receptor (Rattus norvegicus)
# Construct: DRG nerve cells from the primary culture of 2 days were equilibrated; endogenous in cells
# Sequence (O35433 whole entry): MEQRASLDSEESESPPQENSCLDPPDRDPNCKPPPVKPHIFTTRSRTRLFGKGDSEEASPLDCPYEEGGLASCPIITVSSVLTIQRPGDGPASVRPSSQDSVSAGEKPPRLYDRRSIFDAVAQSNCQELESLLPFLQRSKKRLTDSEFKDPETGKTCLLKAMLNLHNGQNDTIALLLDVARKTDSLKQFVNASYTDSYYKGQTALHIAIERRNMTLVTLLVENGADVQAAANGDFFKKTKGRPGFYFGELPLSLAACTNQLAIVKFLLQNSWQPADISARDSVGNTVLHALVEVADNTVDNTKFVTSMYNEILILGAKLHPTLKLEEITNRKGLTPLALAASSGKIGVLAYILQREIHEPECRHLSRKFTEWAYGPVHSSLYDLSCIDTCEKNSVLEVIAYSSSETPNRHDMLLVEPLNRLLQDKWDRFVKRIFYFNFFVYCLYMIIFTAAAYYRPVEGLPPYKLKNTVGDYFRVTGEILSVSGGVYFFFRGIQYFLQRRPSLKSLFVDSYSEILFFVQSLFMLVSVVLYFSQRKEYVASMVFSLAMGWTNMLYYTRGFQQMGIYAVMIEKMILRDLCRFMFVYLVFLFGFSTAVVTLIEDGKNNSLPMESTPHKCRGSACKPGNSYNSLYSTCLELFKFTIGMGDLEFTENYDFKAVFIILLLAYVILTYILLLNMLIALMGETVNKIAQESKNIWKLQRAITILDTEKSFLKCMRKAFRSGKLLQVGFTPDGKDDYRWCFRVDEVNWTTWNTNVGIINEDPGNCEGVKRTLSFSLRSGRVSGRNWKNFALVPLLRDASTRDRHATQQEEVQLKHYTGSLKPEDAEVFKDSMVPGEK
# assay: 45Ca influx test in primary cultured DRG neurons (capsaicin-induced calcium uptake)
# conditions_used: neonatal SD rat DRG neurons; capsaicin 0.5 μM; 45Ca 10 μCi/ml; 10 min at room temperature
Label scheme, based on IC50: low band = under 200 nM, middle band = from 200 nM up to 300 nM, high band = 300 nM and over

smiles_input	group
C/C(=C\c1ccc(C(C)(C)C)cc1)C(=O)N[C@H](C)c1ccc(NS(C)(=O)=O)c(F)c1	low band
CC(C)(C)c1ccc(CNC(=O)NCc2cc(F)c(NS(C)(=O)=O)cc2F)cc1	high band
Cc1cc(CNC(=O)/C=C/c2ccc(C(C)(C)C)cc2)cc(F)c1NS(C)(=O)=O	high band
CC(C)(C)c1ccc(/C=C/C(=O)NCc2cc(F)c(NS(C)(=O)=O)c(I)c2)cc1	low band
CC(C)(C)c1ccc(CNC(=O)NCc2ccc(NS(C)(=O)=O)c(I)c2)cc1	high band

Which band does CCc1cc(CNC(=O)NCc2ccc(C(C)(C)C)cc2)cc(F)c1NS(C)(=O)=O fall in?
low band

Sort CC(C)(C)c1ccc(/C=C/C(=O)NCc2cc(F)c(NS(C)(=O)=O)c(F)c2)cc1 into one of the categories.
high band

Categorize the following entry: Cc1cc(CNC(=O)/C=C/c2ccc(C(C)(C)C)cc2)ccc1NS(C)(=O)=O
middle band

Input Cc1cc(CNC(=O)NCc2ccc(C(C)(C)C)cc2)cc(F)c1NS(C)(=O)=O ; output its category
low band

Quick check: band for C/C(=C\c1ccc(C(C)(C)C)cc1)C(=O)N[C@H](C)c1ccc(NS(C)(=O)=O)cc1
low band

// return the class label for CC(C)(C)c1ccc(/C=C/C(=O)NCc2ccc(NS(C)(=O)=O)c(Cl)c2)cc1
middle band

Bin? C/C(=C\c1ccc(C(C)(C)C)cc1)C(=O)NCc1ccc(NS(C)(=O)=O)cc1
high band
